I'd appreciate it if you could supply Population Normal (%) values for the items below.
# Test system: U2OS
# Method Summary: Multiplex assay against U2OS
# Assay type: toxicity, cell-based
# Experimental Conditions: human, 24 h, 10 µM, compound concentration 10 uM, number of replicates 2
Answer with a number only, understood to be in %.

Query block: What is its Population Normal (%) for U2OS? Entry: "CCN1CCN(Cc2ccc(C(=O)Nc3ccc(C)c(Oc4ccc5c(c4)CC(=O)N5)c3)cc2C(F)(F)F)CC1.Cl.Cl"
Result block: 100

Query block: Check "COc1ccc(-c2cc3c(C)nc(N)nc3n([C@H]3CC[C@H](OCCO)CC3)c2=O)cn1" too.
Result block: 97

Query block: Check "COc1ncc(-c2cc(-c3ncc(CN4C[C@@H](C)O[C@@H](C)C4)o3)c3cn[nH]c3c2)cc1NS(C)(=O)=O" too.
Result block: 100

Query block: Check "CN[C@@H]1CC[C@@H](c2ccc(Cl)c(Cl)c2)c2ccccc21.Cl" too.
Result block: 100

----------
# Test system: U2OS
# Method Summary: Multiplex assay against U2OS
# Type: toxicity, cell-based
# Experimental Conditions: human, 24 h, 1 µM, compound concentration 1 uM, number of replicates 2
I'd appreciate it if you could supply Population Membrane Permeable-Phenotype (%) values for the items below.
Answer with a number only, understood to be in %.

Query block: Endpoint output: Population Membrane Permeable-Phenotype (%) of "OC(c1ccc(-c2ccc(CN3CCN(Cc4ccncc4)CC3)cc2)c(F)c1)(C(F)(F)F)C(F)(F)F" . Value?
Result block: 0

Query block: Check CCCN(CCc1cccs1)[C@H]1CCc2c(O)cccc2C1 [ROTIGOTINE] too.
Result block: 2

Query block: Check "C[C@H](N)Cn1ccc2cc(F)c(Cl)cc21.O=C(O)/C=C/C(=O)O" too.
Result block: 0

Query block: Check "COc1ccc(NC(=O)c2ccc(-c3ccc(-c4noc(C)n4)cc3C)cc2)cc1OCCN(C)C.Cl" too.
Result block: 5

Query block: Check "CCN1CCN(Cc2ccc(C(=O)Nc3ccc(C)c(Oc4ccc5c(c4)CC(=O)N5)c3)cc2C(F)(F)F)CC1.Cl.Cl" too.
Result block: 0

----------
# System: HEK-293T
# Method Summary: Multiplex assay against HEK293T
# Assay type: toxicity, cell-based
# Experimental Conditions: human, 48 h, 10 µM, compound concentration 10 uM, number of replicates 2
Readout Type: Population Healthy Nuclei (%)
Answer with a number only, understood to be in %.

Query block: Endpoint output: Population Healthy Nuclei (%) of "Cc1cccc(S(=O)(=O)N(C)[C@H](C)CCN2CCC(C)CC2)c1.Cl" . Value?
Result block: 83

Query block: Check Br.Cc1cccc(C2CN(C)CCc3c2cc(O)c(O)c3Cl)c1 (stereo not drawn) too.
Result block: 84

Query block: Check "CS(=O)(=O)c1ccc(C(=O)Nc2cccc(COc3ccc(Br)cc3CN3CC[C@@H](O)C3)c2)c(Cl)c1.O=CO" too.
Result block: 85

----------
I'd appreciate it if you could supply Population Normal (%) values for the items below.
# Tested on: Fibroblast
# Method Summary: Multiplex assay against human fibroblast
# Format: toxicity, cell-based
# Experimental Conditions: 48 h, 10 µM, compound concentration 10 uM, number of replicates 2
Answer with a number only, understood to be in %.

Query block: Endpoint output: Population Normal (%) of COc1ccc(-c2cc3c(C)nc(N)nc3n([C@H]3CC[C@H](OCCO)CC3)c2=O)cn1 [PF-04691502] . Value?
Result block: 100

Query block: Check "CCn1ccc(Nc2ncc3c(n2)-c2c(nn(C)c2-c2ccc(-c4cnn(C)c4)cc2Cl)CC3)n1" too.
Result block: 100

Query block: Check "CC1=C(C)C(=O)C(C(C)(C)CC(=O)N(CCCCSC[C@H]2O[C@@H](n3cnc4c(N)ncnc43)[C@H](O)[C@@H]2O)Cc2cccc(-c3ccc(Cl)cc3)c2)=C(C)C1=O" too.
Result block: 100

Query block: Check "C[C@H](N)Cn1ccc2cc(F)c(Cl)cc21.O=C(O)/C=C/C(=O)O" too.
Result block: 99
